All values here come from patent US20060079453A1.

Target Of Assay: HLA-DR DRB4*0101 (DR53) (Homo sapiens, UniProt P01903+P13762, G164S)
Protocol Details: biochemical
Type: binding
Experimental Parameters: DRB4 *0101
No end group written: not given here.
Readout Kind: IC50 (nM)
Quick note: give the figure in nM, leave out the unit.

Problem: // lookup IC50 for LHLLSNDMCARAYSE
Solution: 324

Problem: What does the record list as IC50 for QKILIKIPVTKNIIT ?
Solution: 953

Problem: // query IC50 value for entry PQPFRPQQPYP
Solution: 14

Problem: Record request: IC50 value, item RLRIVRGTQLFEDNYAL
Solution: 120

Problem: Could you share which IC50 value was measured for EYLILSARDVLAVVS ?
Solution: 2530

Problem: Look at this sequence and give its reported IC50. LKLVYRDDFPYAVCR
Solution: 3830

Problem: Would you mind telling me what IC50 value was observed for VCLLFYSKVRKYRYY ?
Solution: 2340

Problem: Which IC50 is listed for EQTTTSITSLYQLEN ?
Solution: 29600

Problem: Give its IC50 value. Item: EMLQNIFAIFRQDSS
Solution: 164

Problem: Look up IC50: YLVCGERGFLYTPKT
Solution: 33100

Problem: Param item = TSLTFSESIPTPSNR ; retrieve measured IC50.
Solution: 3480

Problem: Looking for the measured IC50 of GVILYSDPADYFAPG , can you help?
Solution: 64

Problem: Fill in the blank: the reported IC50 of LRVVQQLLMGALTVT is ____.
Solution: 7.7

Problem: Reported IC50 for PQPFRPQKPYPQ : what is it?
Solution: 22

Problem: # input sequence: DLFVVYRDSIPHAAC ; wanted: its IC50
Solution: 2680

Problem: // lookup IC50 for FPDWQNYTPGPGTRF
Solution: 33900

Problem: Suppose we examine the sequence ADKIYSISMKHPQEM ; what IC50 value has been reported?
Solution: 3550
